- protocol notes: Plasma exposure (average unbound plasma concentration) in rats
- Assay type: in vivo, rat
- settings: Wistar Han, oral; rat, 7 days, 25 mg kg-1 once daily; average unbound plasma concentration; read-out: Avg Cp,u parent
endpoint: concentration at 7 days
Show the value, then the unit it is measured in.

Sample C[C@@]1(c2cc(-c3cncnc3)c(F)cc2F)CCSC(N)=N1 [LY2811376, reference compound] — what was its concentration at 7 days?
741 nM

----------
- tested system: CatD (Homo sapiens)
- Sequence (P07339 65-162 limits assumed): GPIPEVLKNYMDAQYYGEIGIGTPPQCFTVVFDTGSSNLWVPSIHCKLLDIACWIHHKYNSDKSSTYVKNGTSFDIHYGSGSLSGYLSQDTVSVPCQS
- Sequence (P07339 169-412 limits assumed): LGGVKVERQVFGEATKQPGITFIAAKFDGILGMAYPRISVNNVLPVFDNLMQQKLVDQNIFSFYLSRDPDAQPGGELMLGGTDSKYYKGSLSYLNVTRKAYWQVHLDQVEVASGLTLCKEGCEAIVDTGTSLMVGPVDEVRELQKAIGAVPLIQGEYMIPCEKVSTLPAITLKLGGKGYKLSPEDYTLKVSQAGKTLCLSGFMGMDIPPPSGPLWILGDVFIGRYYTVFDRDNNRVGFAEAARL
- protocol notes: CatD purified enzyme fluorescence polarization assay
- Assay type: biochemical
- Parameters: final maturation into a non-covalently associated heavy chain and light chain; purchased Sigma C8696; host or cells: human liver
- settings: purified human enzyme, fluorescence polarization, substrate-based
Give measured pIC50 for each item. Keep answers brief.
One number for each entry, as −log10 of the molar value.

Sample answers from the record:
>  <molecule>
Cc1cc([C@H]2C[C@H]3[C@@H](C)SC(N)=N[C@@]3(c3ccc(F)cc3F)CO2)on1 [PF-9283]

>  <pIC50>
4.92

$$$$
>  <molecule>
NC1=N[C@@]2(c3ccc(F)cc3F)CO[C@@H](c3cc(CO)no3)C[C@H]2[C@@H](CF)S1 [PF-3763]

>  <pIC50>
4.80

$$$$

As a next step, examine the molecule that follows.
Which pIC50 is reported for this molecule? C#CCOc1ccc(C(=O)c2ccc(COC[C@H]3C[C@H]4CSC(N)=N[C@@]4(c4ccc(F)cc4F)CO3)cc2)cc1 [PF-7802]
5.92
